Property: EC50; scope: individual binders
TARGET_UNDER_TEST: T1, APC (303–739) (UniProt P25054 303-739)
T1 construct: adenomatous polyposis coli (APC), residues 303–739; The methods name this construct for FP and SPR; the ITC methods say only 'APC protein'; Plasmid was a gift (Dr. Geng Wu); pET28a; also called APC WT; adenomatous polyposis coli; source: E. coli BL21 (DE3), purified (Ni-NTA)
T1 sequence (looked up): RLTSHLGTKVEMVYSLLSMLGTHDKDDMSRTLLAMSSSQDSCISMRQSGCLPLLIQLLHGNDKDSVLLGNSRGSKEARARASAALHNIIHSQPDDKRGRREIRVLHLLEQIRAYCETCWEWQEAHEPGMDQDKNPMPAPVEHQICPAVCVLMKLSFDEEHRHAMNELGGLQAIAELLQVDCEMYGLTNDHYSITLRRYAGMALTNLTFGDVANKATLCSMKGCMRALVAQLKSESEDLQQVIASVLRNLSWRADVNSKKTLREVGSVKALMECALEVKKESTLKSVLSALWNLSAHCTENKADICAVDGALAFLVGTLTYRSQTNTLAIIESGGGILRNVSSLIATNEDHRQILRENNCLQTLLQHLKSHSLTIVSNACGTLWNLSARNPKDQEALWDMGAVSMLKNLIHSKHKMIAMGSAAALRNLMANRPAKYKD
METHOD_NOTES: fluorescence polarisation; direct binding: tracer fixed at 20 nM, a range of concentrations of APC (303–739), read after 1.5 h; EC50 by nonlinear regression
CONDITION_CONTEXT: both partners purified
Primed or numbered codes have the meaning given here. The star is where a group is joined. FITC = O=C1OC2(c3ccc(O)cc3Oc3cc(O)ccc32)c2ccc(NC(=S)*)cc21; FITC′ = fluorescein isothiocyanate; Cbz = O=C(OCc1ccccc1)*
Unit nM implied. Number only.

State the recorded EC50 for this entry: Ac-GGGGEQLAINELISDGK(FITC)-NH2 (stretch of Asef (Rho guanine nucleotide exchange factor 4); lysine that carries FITC; source: synthetic peptide, bought: Changzhou Kanglong Biotech Ltd) [tracer 1 (Ac–GGGGEQLAINELISDGK[FITC]–NH2)]
540

Another binder to check: Ac-GGAGEALAINELISDGK(FITC′)-NH2 (designed from tracer 1 (Asef stretch) by changing residues of the hot spot GGEQLAI; source: synthetic peptide, bought: Changzhou Kanglong Biotech Ltd) [tracer 2 (Ac–GGAGEALAINELISDGK[FITC]–NH2)]
180

Another binder to check: Ac-EGAGESLYENELISDGK(FITC′)-NH2 (tracer 3 with its first residue replaced; source: synthetic peptide, bought: Changzhou Kanglong Biotech Ltd) [tracer 5 (Ac–EGAGESLYENELISDGK[FITC]–NH2)]
46

Another binder to check: Ac-YGAGESLYENELISDGK(FITC′)-NH2 (tracer 3 with its first residue replaced; source: synthetic peptide, bought: Changzhou Kanglong Biotech Ltd) [tracer 4 (Ac–YGAGESLYENELISDGK[FITC]–NH2)]
48

Another binder to check: Cbz-AGESLYENELISDGK(FITC′)-NH2 (tracer 3 with its first two residues GG replaced by a benzyloxycarbonyl (Z) group; source: synthetic peptide, bought: Changzhou Kanglong Biotech Ltd) [tracer 6 (Z–AGESLYENELISDGK[FITC]–NH2)]
40

Another binder to check: Cbz-AGESLYEK(FITC)-NH2 (tracer 6 with a shortened linker; source: synthetic peptide, bought: Changzhou Kanglong Biotech Ltd) [tracer 7 (Z–AGESLYEK[FITC]–NH2)]
16

Another binder to check: Ac-GGAGESLYENELISDGK(FITC′)-NH2 (designed from tracer 1 (Asef stretch) by changing residues of the hot spot GGEQLAI; source: synthetic peptide, bought: Changzhou Kanglong Biotech Ltd) [tracer 3 (Ac–GGAGESLYENELISDGK[FITC]–NH2)]
68
